- Tested on: PPARg:RXRa 90nM:30nM, anti-RXR (NR concentration 90 nM, RXRa partner concentration 30 nM)
- Test: PBM binding z-score (relative to random genomic background probes); higher = stronger binding; sequences stand for … in GC…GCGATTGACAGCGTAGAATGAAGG
If the reported PBM binding z-score equals or exceeds 3, assign fulfilled. If not, assign not fulfilled.

>>> print(df.to_string())
                        sequence_input                       experimental_target    class_label
 0  GATACAGGGTCAAGGCCAGAGGACGCGTATTGAT  PPARg:RXRa 90nM:30nM, anti-RXR (NR concentration 90 nM, RXRa partner concentration 30 nM)      fulfilled
 1  AGAACGAGGGCAATGACTTGATAGCACGGGTGGC  PPARg:RXRa 90nM:30nM, anti-RXR (NR concentration 90 nM, RXRa partner concentration 30 nM)  not fulfilled
 2  CGTCCAATGTCAAAGGTCAGTGAAGAGATGACGG  PPARg:RXRa 90nM:30nM, anti-RXR (NR concentration 90 nM, RXRa partner concentration 30 nM)      fulfilled
 3  GGAACGAGGGCAAGTTGATAGGAGAGTTTGATGG  PPARg:RXRa 90nM:30nM, anti-RXR (NR concentration 90 nM, RXRa partner concentration 30 nM)  not fulfilled
 4  AATACAGGGTCATCGTAGGCCAGAGTACGCACAG  PPARg:RXRa 90nM:30nM, anti-RXR (NR concentration 90 nM, RXRa partner concentration 30 nM)      fulfilled
 5  TCTTGTAGAACAAGCAGGTTAAGAAAGCCTGAGT  PPARg:RXRa 90nM:30nM, anti-RXR (NR concentration 90 nM, RXRa partner concentration 30 nM)  not fulfilled
 6  CTGACTGGGGCAAGGTTACCATAACGCACAGCCA  PPARg:RXRa 90nM:30nM, anti-RXR (NR concentration 90 nM, RXRa partner concentration 30 nM)      fulfilled
 7  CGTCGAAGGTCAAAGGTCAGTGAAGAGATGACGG  PPARg:RXRa 90nM:30nM, anti-RXR (NR concentration 90 nM, RXRa partner concentration 30 nM)      fulfilled
 8  TCATATAGGTATATGCTAGGTGAAAGTCCGATCT  PPARg:RXRa 90nM:30nM, anti-RXR (NR concentration 90 nM, RXRa partner concentration 30 nM)  not fulfilled
 9  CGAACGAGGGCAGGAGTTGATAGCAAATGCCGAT  PPARg:RXRa 90nM:30nM, anti-RXR (NR concentration 90 nM, RXRa partner concentration 30 nM)  not fulfilled
10  TCTTGTAGATCAATAGAGTTTAAGAAAGTGCGCT  PPARg:RXRa 90nM:30nM, anti-RXR (NR concentration 90 nM, RXRa partner concentration 30 nM)  not fulfilled
11  ACTAGCAGTCCAAGGGTCACTCAAGATTAGTCCG  PPARg:RXRa 90nM:30nM, anti-RXR (NR concentration 90 nM, RXRa partner concentration 30 nM)      fulfilled

----------
- Test system: LXRb:RXRa (NR concentration 270 nM, RXRa partner concentration 90 nM)
- Test: PBM binding z-score (relative to random genomic background probes); higher = stronger binding; sequences stand for … in GC…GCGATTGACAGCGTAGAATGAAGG
Measured Endpoint: PBM binding z-score

>>> df
                        sequence_input    measured_endpoint  reported_result
 0  CATACAGGGTCAGCTAGGCCAGCGTAGGGACGGC  PBM binding z-score             1.98
 1  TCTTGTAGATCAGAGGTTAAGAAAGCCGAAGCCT  PBM binding z-score              1.4
 2  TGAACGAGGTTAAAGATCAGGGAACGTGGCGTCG  PBM binding z-score             1.57
 3  GGAACGAGGGCAAAGTTGATAGGATCTGTCGACG  PBM binding z-score             0.86
 4  CCGACTGGCGCAAAGGTTACCATACTCAGTACGA  PBM binding z-score             1.78
 5  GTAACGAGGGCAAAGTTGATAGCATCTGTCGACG  PBM binding z-score             1.17
 6  GCTATTAGTTGAAAGGGAAACCGAATGATTCTCG  PBM binding z-score           -0.236
 7  AGAACGAGGGCAAGGAGTTGATAGCACGGGTGGC  PBM binding z-score           -0.441
 8  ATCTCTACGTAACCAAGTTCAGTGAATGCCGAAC  PBM binding z-score            0.389
 9  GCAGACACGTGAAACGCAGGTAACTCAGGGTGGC  PBM binding z-score           -0.691
10  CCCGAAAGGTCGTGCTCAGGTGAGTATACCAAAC  PBM binding z-score             3.37
11  CCTACTGGGCCAAGGTCGTTGATCAGTCAAAGCA  PBM binding z-score             0.25
12  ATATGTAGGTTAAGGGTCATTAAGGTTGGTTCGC  PBM binding z-score              4.3
13  TCTACAGGGTCAAAGGCCAGAGTACGAATGTCGA  PBM binding z-score             4.11
14  AGACCGAGGGCAATGAGTTGATAGCACGGGTGGC  PBM binding z-score           -0.427
15  GGAACGAGGGCTAAGTTGATAGCATCTGTCGACG  PBM binding z-score           -0.796
16  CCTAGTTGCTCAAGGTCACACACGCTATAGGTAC  PBM binding z-score             3.72
17  TCAGACAGGTGAAGGTAACTAAGGTACGCAGTCG  PBM binding z-score             1.44
18  AGAATGAGGTTATTAAGATCACGGAATTGCGGTC  PBM binding z-score             1.57
19  CCGACTGGGGCAAAGGTTACCATACTCAGTACGA  PBM binding z-score              2.1
20  CGTCCAAGGTCAGAGAAGTCAGTGAATGCCGAGT  PBM binding z-score             2.17
21  CAAACTAGGTCAAGAGGTCTAAGTCCGCTTCCCG  PBM binding z-score              1.7
22  TAGCCTAGGACAGATCGGGCCAGTATACGCTATA  PBM binding z-score            -1.34
23  CGAACGAGGGCATGAGTTGAAAGCAAATGCCGAT  PBM binding z-score           0.0977
24  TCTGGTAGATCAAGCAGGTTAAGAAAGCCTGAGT  PBM binding z-score          0.00998
25  ATATGTAGGTTAAGGGTCGTTCAGGTTGGTTCGC  PBM binding z-score             2.85
